Values compiled from the Human Domainome abundance scans (Beltran et al. 2025).

B1: Far upstream element-binding protein 1, residues 98 to 169; numbered along this chain, Q96AE4 (parent)
chain: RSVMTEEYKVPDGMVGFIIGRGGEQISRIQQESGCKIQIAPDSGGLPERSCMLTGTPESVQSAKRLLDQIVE

Variants of: B1
Test method notes: abundance fitness (aPCA) (normalised: wild type 0, dead -1); higher = more abundant; growth selection in yeast, the domain comes from the species named
Condition description: Homo sapiens
Y means recorded abundance fitness is -0.09 or above; N means it is below -0.09.

>>> print(df.to_string())
    mutation_id  label_value
 0         E72N            N
 1         A63Y            N
 2          S2C            Y
 3         P57V            Y
 4         M14R            N
 5         Q31W            N
 6         V10W            N
 7          E6H            Y
 8         P41E            Y
 9         G45S            Y
10         V15C            N
11         Q25F            N
12         M52V            Y
13         G34W            N
14         P57A            Y
15         P57N            Y
16         E58V            Y
17         G44E            Y
18         K36R            Y
19         V10D            N
20         V10S            N
21          E6A            N
